Value source: the Deep4Chem optical property database

test-protocol: solvent given as SMILES
experimental-setup: in Cc1ccccc1
Classification field: Met = fluorescence lifetime at or over 2 ns; Not met = fluorescence lifetime under 2 ns.

query: Hi, just wondering whether O=C1c2ccc(-c3ccc(N(c4ccccc4)c4ccccc4)cc3)cc2C(=O)c2ccc(-c3ccc(N(c4ccccc4)c4ccccc4)cc3)cc21 shows fluorescence lifetime of 2 ns or higher.
result: Met

query: Lookup C(=C\c1ccc(-c2ccc(/C=C/c3ccc(-n4c5ccccc5c5ccccc54)cc3)s2)s1)/c1ccc(-n2c3ccccc3c3ccccc32)cc1
result: Not met

query: Then COc1ccc(N(c2ccccc2)c2ccccc2)cc1 ?
result: Not met

query: Entry to check: c1ccc(-c2nnc(-c3cc(-c4nnc(-c5ccccc5)o4)c(-n4c5ccccc5c5ccccc54)cc3-n3c4ccccc4c4ccccc43)o2)cc1
result: Met

query: Subsequent entry: CCN(CC)c1ccc(C=Cc2nc3nc4ccccc4nc3s2)c(OC)c1
result: Not met

query: How about CC1(C)c2ccccc2N(c2ccc(C(=O)c3cc(C(=O)c4ccc(N5c6ccccc6C(C)(C)c6ccccc65)cc4)cc(C(=O)c4ccc(N5c6ccccc6C(C)(C)c6ccccc65)cc4)c3)cc2)c2ccccc21 ?
result: Met

query: Same thing, different compound: COc1ccc(C2=C3C(C)=CC(C=Cc4ccc(C(=O)OC5C[C@H]6CCC5(C)C6(C)C)cc4)=[N+]3[B-](F)(F)n3c(C)cc(C)c32)cc1 (stereo partly specified)
result: Met

query: Now try CN1CCN(c2ccc3c4c(cccc24)C(=O)c2ccccc2-3)CC1 .
result: Met

query: Then what about the compound CCCCOc1ccc(/C=C/C=C/C=C/c2ccc([N+](=O)[O-])cc2)cc1 ?
result: Not met

query: // repeat for O=S(=O)(c1ccc(-c2ccc3c(c2)c2ccccc2n3-c2ccccc2)cc1)c1ccc(-c2ccc3c(c2)c2ccccc2n3-c2ccccc2)cc1 and report
result: Not met

query: Follow-up entry: COC(=O)/C(C#N)=c1\s/c(=c2/s/c(=C(/C#N)C(=O)OC)c3cc(-c4ccccc4)sc23)c2sc(-c3ccccc3)cc12
result: Met

query: Quick one: F[B-]1(F)n2c(-c3cccs3)cc(-c3cccs3)c2N=C2C(c3cccs3)=CC(c3cccs3)=[N+]21
result: Met

query: Would you mind doing COC(=O)c1ccc(C#Cc2ccc(N(C)C)cc2)cc1 as well?
result: Not met

query: Same thing, different compound: CCN1C(=O)C(C2C(=O)c3c4ccccc4cc4cc5ccccc5c2c34)SC1=S (stereo unspecified)
result: Met

query: // next record c1ccc(-c2cc(-c3ccc4ccc5cccc6ccc3c4c56)ccn2)nc1
result: Met

query: Check N#Cc1cccc(C#N)c1-n1c2ccccc2c2cc(-c3ccc4c(c3)c3ccccc3n4-c3c(C#N)cccc3C#N)ccc21 too.
result: Met

query: Proceed to COc1ccc(-c2c3ccc([nH]3)c3nc(c(-c4ccc([N+](=O)[O-])cc4)c4ccc([nH]4)c4ccc([nH]4)c(-c4ccc(OC)cc4)c4ccc2o4)C=C3)cc1
result: Met

query: // same read-out, input: CC(=O)O[B-]1(OC(C)=O)OC(/C=C/c2cccc3ccccc23)=CC(/C=C/c2cccc3ccccc23)=[O+]1
result: Met

query: And then CC1(C)c2ccccc2N(c2ccc(S(=O)(=O)c3ccc(N4c5ccccc5C(C)(C)c5ccccc54)cc3)cc2)c2ccccc21 , what is it?
result: Met

query: What do we get for c1ccc(-c2nc(-c3ccccc3)nc(-c3ccc(-n4c5ccccc5c5cc(-n6c7ccccc7c7ccccc76)ccc54)cc3)n2)cc1 ?
result: Met

query: Then this compound: F[B-]1(F)n2c(Nc3cccc4cccnc34)ccc2C(c2ccccc2)=C2C=CC(Cl)=[N+]21
result: Not met

query: Record: c1ccc2c(c1)CCc1c-2cnc2c1-c1ccccc1CC2
result: Met

query: Would you kindly repeat that for CCn1c2ccccc2c2c3nsnc3c3c4ccccc4n(CC)c3c21 ?
result: Not met

query: And the next one, CC(C)c1cc(C(C)C)c(B2c3ccccc3Oc3cc(N4c5ccccc5C(C)(C)c5ccccc54)ccc32)c(C(C)C)c1 ?
result: Met

query: Proceed to CC1(C)OB(c2cc3ccc4cc(B5OC(C)(C)C(C)(C)O5)cc5ccc(c2)c3c45)OC1(C)C
result: Met

query: Another compound to check: CCCCCCC(CCCCCC)N1C(=O)c2cccc3c(-c4ccc(OC)c5ccccc45)ccc(c23)C1=O
result: Not met

query: Also CN(C)c1ccc(/C=C/c2ccc(-c3nnc(-c4ccc(-c5cc6ccccc6s5)cc4)o3)cc2)cc1 ?
result: Not met

query: Would you mind doing CCCCCCC(CCCCCC)N1C(=O)c2cccc3c(-c4ccc(N(C)C)cc4)ccc(c23)C1=O as well?
result: Met

query: What about this compound? Cc1cc(C)c2c(c1)c1cc(C)cc(C)c1n2-c1ccc2c(c1)Oc1cc3c(cc1B2c1c(C(C)C)cc(C(C)C)cc1C(C)C)B(c1c(C(C)C)cc(C(C)C)cc1C(C)C)c1ccccc1O3
result: Met

query: Request: N#Cc1c(-n2c3ccccc3c3ccccc32)cc(N2c3ccccc3C(c3ccccc3)(c3ccccc3)c3ccccc32)cc1-n1c2ccccc2c2ccccc21
result: Met

query: And then Cc1ccccc1[B-]1(c2ccccc2C)n2nc(C(F)(F)F)cc2-c2c3ccccc3cc[n+]21 , what is it?
result: Not met
